PROTOCOL: Quantitative High-Throughput drug screen in 47 multiple myeloma cell lines against the NCATS MIPE library collection: OPM2_DSMZ cell viability assay (AID 1919872); also: nearly all actives have a fitted effect of over 30% in size
CONDITION_NOTES: OPM2 myeloma viability, CellTiter-Glo ATP luminescence, 48 h; series mostly up to 45.8 µM
Results filed as inconclusive are left out. Calls of active or inactive are those of the source. Calls follow the shape of the dose curve; as a rule, active = well fitted cell-killing curve with a large enough effect; inconclusive = small, poorly fitted or top-dose-only effect, or effect the other way; inactive = no such curve, though single readings can be large or run the other way.
Classes used: TRUE for active, FALSE for inactive

| COMPOUND | ASSIGNED_CATEGORY |
| --- | --- |
| O=S(=O)(F)Cc1ccccc1 | FALSE |
| C[C@H]([C@H](O)CCC(C)(C)O)[C@H]1CC[C@@]2(O)C3=CC(=O)[C@@H]4C[C@@H](O)[C@@H](O)C[C@]4(C)[C@@H]3CC[C@]12C | FALSE |
| COc1ccc2c(c[n+](C)c3c4cc5c(cc4ccc23)OCO5)c1OC | TRUE |
| CC(C)N(CCNC(=O)CN1CCCC1=O)C(C)C | FALSE |
| O=C(N[C@H]1CN2CCC1CC2)c1ccc(Cl)cc1 | FALSE |
| CC(=O)O[C@@]12CO[C@H]1C[C@H](O)[C@@]1(C)C(=O)[C@H](O)C3=C(C)[C@@H](O)C[C@@](O)([C@@H](OC(=O)c4ccccc4)[C@@H]21)C3(C)C | TRUE |
| Cc1c(N)nc([C@H](CC(N)=O)NC[C@@H](N)C(N)=O)nc1C(=O)N[C@H](C(=O)N[C@@H](C)[C@H](O)[C@@H](C)C(=O)N[C@@H](C(=O)NCCc1nc(-c2nc(C(=O)NCCC[S+](C)C)cs2)cs1)[C@@H](C)O)C(O[C@H]1O[C@H](CO)[C@H](O)[C@@H](O)[C@@H]1O[C@H]1O[C@H](CO)[C@@H](O)[C@H](OC(N)=O)[C@H]1O)c1cnc[nH]1 (stereo partly drawn) | TRUE |
| NC1CC1c1ccccc1 (stereo not drawn) | FALSE |
| CN(C)NC(=O)CCC(=O)O | FALSE |
| COc1cc2cc(c1Cl)N(C)C(=O)C[C@H](OC(=O)C(C)C)[C@]1(C)O[C@H]1[C@H](C)[C@@H]1C[C@@](O)(NC(=O)O1)[C@H](OC)C=CC=C(C)C2 | FALSE |
| COc1ccc2c(c1)[C@]13CCCCC1C(C2)N(C)CC3 (stereo partly drawn) | FALSE |
| Cc1ccccc1-n1c(Cn2ncc3c(N)ncnc32)nc2cccc(C)c2c1=O | TRUE |
| Cc1c(C(=O)c2cccc3ccccc23)c2cccc3c2n1[C@H](CN1CCOCC1)CO3 | TRUE |
| O=c1[nH]c2ccccc2n1C1CCN(Cc2ccc(-c3[nH]c4cc5ncnc5cc4nc3-c3ccccc3)cc2)CC1 | TRUE |
| C1=C2CCCN[C@H]2[C@@H]2C[C@H]1[C@@H]1CCCCN1C2 | FALSE |
| COC[C@H]1OC(=O)c2coc3c2[C@@]1(C)C1=C(C3=O)[C@@H]2CC[C@H](O)[C@@]2(C)C[C@@H]1OC(C)=O | TRUE |
| CC(=Cc1csc(C)n1)[C@@H]1C[C@H]2O[C@]2(C)CCC[C@H](C)[C@@H](O)[C@@H](C)C(=O)C(C)(C)[C@@H](O)CC(=O)O1 | FALSE |
| CCN1C[C@]2(OC(=O)c3ccccc3NC(C)=O)CC[C@H](OC)[C@@]34[C@H]5CC6[C@@H](OC)C[C@](O)(C(C[C@@H]23)[C@@H]14)[C@@]5(O)[C@@H]6OC | FALSE |
| O=C(N[C@@H](COc1ccc2[nH]c(=O)[nH]c2c1)c1ccccc1)c1cccn(Cc2ccc(F)c(F)c2)c1=O | FALSE |
| CCc1c(C(=O)C(N)=O)c2c(OCC(=O)O)cccc2n1Cc1ccccc1 | FALSE |
| CC(O)=C(C#N)C(=O)Nc1cc(Br)ccc1Br | FALSE |
| O=C(Oc1ccc([N+](=O)[O-])cc1)N1CCC(C(O)(c2ccc3c(c2)OCO3)c2ccc3c(c2)OCO3)CC1 | FALSE |
| c1ccc(CCCN2CCN(CCOC(c3ccccc3)c3ccccc3)CC2)cc1 | TRUE |
| CC1(N2CCC(n3c([C@@H]4CCCNC4)nc4ccccc43)CC2)CCCCCCC1 | TRUE |
| O=C1CCC[C@@H]2[C@H]3CCCN4CCC[C@@H](CN12)[C@@H]34 | FALSE |
| C[C@]12CC[C@H]3[C@@H](CCC4=CC(=O)CC[C@@]43C)[C@H]1CC[C@H]2OC(=O)CCC1CCCC1 | FALSE |
| C#C[C@]1(O)C=C[C@@H]2[C@@H]3CCC4=CC(=O)CC[C@@H]4[C@H]3CC[C@@]21CC | FALSE |
| CC(C)[C@H]1C(=O)N[C@H](CO)Cc2c[nH]c3cccc(c23)N1C | TRUE |
